- System tested: aurora A kinase (AURKA) (Homo sapiens, UniProt O14965)
- Construct: purchased BPS Bioscience (assay run externally by the vendor)
- Sequence (O14965 whole entry): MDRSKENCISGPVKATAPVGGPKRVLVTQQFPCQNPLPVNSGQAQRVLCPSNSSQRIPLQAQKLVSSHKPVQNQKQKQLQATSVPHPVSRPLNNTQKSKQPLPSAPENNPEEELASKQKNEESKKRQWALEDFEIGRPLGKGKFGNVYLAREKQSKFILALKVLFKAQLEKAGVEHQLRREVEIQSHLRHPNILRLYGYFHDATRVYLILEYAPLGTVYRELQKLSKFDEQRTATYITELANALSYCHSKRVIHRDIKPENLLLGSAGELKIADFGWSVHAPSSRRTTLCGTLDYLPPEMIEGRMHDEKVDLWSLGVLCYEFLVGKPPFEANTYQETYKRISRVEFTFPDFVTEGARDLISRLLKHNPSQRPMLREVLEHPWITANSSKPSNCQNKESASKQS
- Experiment summary: ADP-Glo kinase assay, Aurora A
- Assay type: biochemical
- Study conditions: Log[nM] 2.5; Set3
Readout name: Aurora A % Activity Set3 (%)

{"Compound": "Clc1ccc(Nc2ncnc3[nH]ccc23)cc1Br", "System tested": "aurora A kinase (AURKA) (Homo sapiens, UniProt O14965)", "Unit name": "%", "Aurora A % Activity Set3": 95}
{"Compound": "Nc1nc(Nc2cccc(Br)c2)c2cc[nH]c2n1", "System tested": "aurora A kinase (AURKA) (Homo sapiens, UniProt O14965)", "Unit name": "%", "Aurora A % Activity Set3": 113}
{"Compound": "Clc1cccc(Nc2ncnc3[nH]ccc23)c1", "System tested": "aurora A kinase (AURKA) (Homo sapiens, UniProt O14965)", "Unit name": "%", "Aurora A % Activity Set3": 99}
{"Compound": "Brc1cccc(Nc2ncnc3[nH]ccc23)c1", "System tested": "aurora A kinase (AURKA) (Homo sapiens, UniProt O14965)", "Unit name": "%", "Aurora A % Activity Set3": 95}
{"Compound": "Clc1ccc(Nc2ncnc3[nH]ccc23)cc1Cl", "System tested": "aurora A kinase (AURKA) (Homo sapiens, UniProt O14965)", "Unit name": "%", "Aurora A % Activity Set3": 106}
{"Compound": "Clc1ccc(Nc2ncnc3[nH]ccc23)cc1", "System tested": "aurora A kinase (AURKA) (Homo sapiens, UniProt O14965)", "Unit name": "%", "Aurora A % Activity Set3": 101}
{"Compound": "Clc1ccccc1Nc1ncnc2[nH]ccc12", "System tested": "aurora A kinase (AURKA) (Homo sapiens, UniProt O14965)", "Unit name": "%", "Aurora A % Activity Set3": 101}
{"Compound": "Fc1cc(Nc2ncnc3[nH]ccc23)ccc1Cl", "System tested": "aurora A kinase (AURKA) (Homo sapiens, UniProt O14965)", "Unit name": "%", "Aurora A % Activity Set3": 103}
{"Compound": "Cc1cccc(Nc2ncnc3[nH]ccc23)c1", "System tested": "aurora A kinase (AURKA) (Homo sapiens, UniProt O14965)", "Unit name": "%", "Aurora A % Activity Set3": 95}
{"Compound": "c1ccc(Oc2ccc(Nc3ncnc4[nH]ccc34)cc2)cc1", "System tested": "aurora A kinase (AURKA) (Homo sapiens, UniProt O14965)", "Unit name": "%", "Aurora A % Activity Set3": 95}
{"Compound": "c1ccc(Cc2ccc(Nc3ncnc4[nH]ccc34)cc2)cc1", "System tested": "aurora A kinase (AURKA) (Homo sapiens, UniProt O14965)", "Unit name": "%", "Aurora A % Activity Set3": 93}
{"Compound": "Brc1ccc(Nc2ncnc3[nH]ccc23)cc1", "System tested": "aurora A kinase (AURKA) (Homo sapiens, UniProt O14965)", "Unit name": "%", "Aurora A % Activity Set3": 98}
{"Compound": "Cc1ccc(Nc2ncnc3[nH]ccc23)cc1", "System tested": "aurora A kinase (AURKA) (Homo sapiens, UniProt O14965)", "Unit name": "%", "Aurora A % Activity Set3": 110}
{"Compound": "Cc1ccccc1Nc1ncnc2[nH]ccc12", "System tested": "aurora A kinase (AURKA) (Homo sapiens, UniProt O14965)", "Unit name": "%", "Aurora A % Activity Set3": 107}
{"Compound": "COc1ccc(Nc2ncnc3[nH]ccc23)cc1", "System tested": "aurora A kinase (AURKA) (Homo sapiens, UniProt O14965)", "Unit name": "%", "Aurora A % Activity Set3": 106}
{"Compound": "c1ccc(Nc2ncnc3[nH]ccc23)cc1", "System tested": "aurora A kinase (AURKA) (Homo sapiens, UniProt O14965)", "Unit name": "%", "Aurora A % Activity Set3": 104}
{"Compound": "FC(F)(F)c1cccc(Nc2ncnc3[nH]ccc23)c1", "System tested": "aurora A kinase (AURKA) (Homo sapiens, UniProt O14965)", "Unit name": "%", "Aurora A % Activity Set3": 112}
